Tested on: Dugesia japonica
TEST_PROTOCOL: crawl-out incidence (% planarians); higher = higher incidence or increase relative to vehicle control
ASSAY_SETUP: exposure time: 15 min to 3 h acute
Counter-ions that a name gives are not always drawn.
Overview of recorded crawl-out incidence for various compounds
Give the value as a plain number.

INSERT INTO results (compound, observation_type, value_reported) VALUES
  ('O=C(CCCN1CCC(O)(c2ccc(Br)cc2)CC1)c1ccc(F)cc1 [bromperidol] (1 µM)', 'crawl-out incidence', 12.5),
  ('Cc1cc2c(s1)Nc1ccccc1N=C2N1CCN(C)CC1 [olanzapine] (3.16 µM)', 'crawl-out incidence', 4.17),
  ('CCCCNc1c(C(=O)OCC)c(C)nc2c1cnn2CC [tracazolate hydrochloride] (1 µM)', 'crawl-out incidence', 0),
  ('CN1CCN(CCCN2c3ccccc3Sc3ccc(Cl)cc32)CC1 [prochloroperazine] (1 µM)', 'crawl-out incidence', 4.17),
  ('O=C1CC2(CCCC2)CC(=O)N1CCCCN1CCN(c2ncccn2)CC1 [buspirone] (1 µM)', 'crawl-out incidence', 0),
  ('CN(C)CCCC1(c2ccc(F)cc2)OCc2cc(C#N)ccc21 (centres undefined) [citalopram hydrobromide] (10 µM)', 'crawl-out incidence', 0),
  ('O=C(CCCN1CCC(O)(c2ccc(Cl)cc2)CC1)c1ccc(F)cc1 [haloperidol] (1 µM)', 'crawl-out incidence', 4.17),
  ('CNCCC(Oc1ccc(C(F)(F)F)cc1)c1ccccc1 (centres undefined) [fluoxetine hydrochloride] (1 µM)', 'crawl-out incidence', 0);

Recorded crawl-out incidence for CN1CC(=O)N=C1NC(=O)Nc1cccc(Cl)c1 [fenobam] (56.2 µM) , please?
0

Provenance of the data: the supplement of paper PMC11781733
